assaySummary: protein stability index of a GFP-peptide fusion (yeast GPS) (PSI 1-4); higher = more stable; sorted into four equal gates, so the index is relative within each strain
conditionDescription: pdr5∆
Label rule, in plain words: protein stability index of 3 and up is criterion met, under 3 is criterion not met.

[Q] Reported protein stability index at or above 3? HFNGIRRLDALVEKVYA [ITC1]
[A] criterion not met

[Q] Reported protein stability index at or above 3? NNSNSNNNDNNNSNTVA [SWI1]
[A] criterion met

[Q] Reported protein stability index at or above 3? PYSKNAVEQLAGCKIDN [YDL088C/ASM4]
[A] criterion not met

[Q] Reported protein stability index at or above 3? ETGYMSRRLMKSLEDLS [RPO31]
[A] criterion met

[Q] Reported protein stability index at or above 3? PNADDIRDSIPQMDSFD [DIS3]
[A] criterion not met

[Q] Reported protein stability index at or above 3? GDPALVYKFMSLAKSSA [ECM29]
[A] criterion not met

[Q] Reported protein stability index at or above 3? NFPDEDDDDSRKSAPVD [SKP1]
[A] criterion met

[Q] Reported protein stability index at or above 3? KIVDKDGIRQVDDFQAQ [PRE1]
[A] criterion not met

[Q] Reported protein stability index at or above 3? FHSTYLMNGVKPFKSFL [FAS1]
[A] criterion not met

[Q] Reported protein stability index at or above 3? RRRREGKTDYYQRKRLV [RPL5]
[A] criterion met

[Q] Reported protein stability index at or above 3? DAVLKIFSFHQDSIFQR [SRB8]
[A] criterion not met

[Q] Reported protein stability index at or above 3? APLNLEIPAYEFDGDKV [RIP1]
[A] criterion not met

[Q] Reported protein stability index at or above 3? ARNVQVHQEPYVFNARP [RPS0A]
[A] criterion met

[Q] Reported protein stability index at or above 3? VTNSPLFQTIEKLINNS [ECM29]
[A] criterion not met

----------
assaySummary: protein stability index of a GFP-peptide fusion (yeast GPS) (PSI 1-4); higher = more stable; sorted into four equal gates, so the index is relative within each strain
conditionDescription: doa10∆
assayEndpoint: protein stability index
Please reply with the value in numeric form only.

Reference set, count: 2
[Q] # get_value(readout='protein stability index', item= SYSPTSPSYSPTSPSYS [RPO21] )
[A] 2.53

[Q] # get_value(readout='protein stability index', item= SPEESKARSPGIAKPNA [SIR4] )
[A] 3.48

Continuing:
[Q] # get_value(readout='protein stability index', item= PIAASTDLPIETAAMAS [RPN1] )
[A] 1.48

----------
Parameter: protein stability index. Scope: all listed entries.
assaySummary: protein stability index of a GFP-peptide fusion (yeast GPS) (PSI 1-4); higher = more stable; sorted into four equal gates, so the index is relative within each strain
conditionDescription: ubr1∆
Please reply with the value in numeric form only.

[Q] # get_value(readout='protein stability index', item= IYDSEDPQQVFDERIKF [RPN3] )
[A] 2.89

[Q] # get_value(readout='protein stability index', item= HKDSFYDRATLTQLLSM [RPO31] )
[A] 1.35

[Q] # get_value(readout='protein stability index', item= LAMEAILNELEVFIGRV [YJR042W/NUP85] )
[A] 2.51

[Q] # get_value(readout='protein stability index', item= DKPYLLRIVTHLAICLD [YDL116W/NUP84] )
[A] 1.58

[Q] # get_value(readout='protein stability index', item= HPWEQAKEVKVLYHTSG [PRP8] )
[A] 2.9

[Q] # get_value(readout='protein stability index', item= ISLAVEGEPVNSPNYFV [COR1] )
[A] 1.99

Continuing:
[Q] # get_value(readout='protein stability index', item= QKKVLIDGPKAGVPRQA [RPL14A] )
[A] 3.35

----------
assaySummary: protein stability index of a GFP-peptide fusion (yeast GPS) (PSI 1-4); higher = more stable; sorted into four equal gates, so the index is relative within each strain
conditionDescription: san1∆
assayEndpoint: protein stability index

[Q] # get_value(readout='protein stability index', item= PIVIIFRALGIIPDGEI [RPB2] )
[A] 2.05

[Q] # get_value(readout='protein stability index', item= GISRDIKALQDSLFKDV [YML103C/NUP188] )
[A] 2.07

[Q] # get_value(readout='protein stability index', item= AKLSDTLIIDQVRKDLG [NUT1] )
[A] 2.7

[Q] # get_value(readout='protein stability index', item= RELARIKKYASVVRVLV [RPL3] )
[A] 1.13

[Q] # get_value(readout='protein stability index', item= HILAVKKMMNTLVHTRV [SSN2] )
[A] 2.06

[Q] # get_value(readout='protein stability index', item= EQFYTKDIIDPKLTSIF [RPN2] )
[A] 2.36

Lab note: next sequence to report on.
[Q] # get_value(readout='protein stability index', item= DKDNPVDSRNETDHKTN [SRB4] )
[A] 2.88

----------
assaySummary: protein stability index of a GFP-peptide fusion (yeast GPS) (PSI 1-4); higher = more stable; sorted into four equal gates, so the index is relative within each strain
conditionDescription: ubr1∆
The following ranges of protein stability index define the classes used here: lower bin (below 2), middle bin (2 to below 3), upper bin (3 or more)

Look over these answered cases.
[Q] Exam item: assign SGYVRSRGESDDSLNRL [RPS21A] to the correct category.
[A] middle bin

[Q] Exam item: assign AIKDKLEQDLHFENAKV [YIL149C/MLP2] to the correct category.
[A] upper bin

[Q] Exam item: assign AEYAQLLAKRLSERKAE [RPS6A] to the correct category.
[A] middle bin

[Q] Exam item: assign PGTTSTGNNNNIATQQN [GAL11] to the correct category.
[A] middle bin

[Q] Exam item: assign EKLTLVTLSEIYNELSY [CSN9] to the correct category.
[A] lower bin

[Q] Exam item: assign APNHSPEIDNLDDLVVL [RRP6] to the correct category.
[A] middle bin

Continuing:
[Q] Exam item: assign VTQSNILSQQFDKIIKI [SRB8] to the correct category.
[A] middle bin

[Q] Exam item: assign TMADAVRELGILCIFEG [SEC65] to the correct category.
[A] lower bin

[Q] Exam item: assign VLNEDDLAFGGEANKHH [RPN5] to the correct category.
[A] upper bin

[Q] Exam item: assign SLQQMQHLQQLKMQQQQ [GAL11] to the correct category.
[A] lower bin

[Q] Exam item: assign IIMHKDVEIGRMPIMLR [RET1] to the correct category.
[A] middle bin

[Q] Exam item: assign ASSAVMNRRKIAMPKRR [YLR335W/NUP2] to the correct category.
[A] lower bin

[Q] Exam item: assign MQENDKINQERLERRIN [CSI1] to the correct category.
[A] lower bin

[Q] Exam item: assign DTYKRFKYLLGVTDLFR [ISW2] to the correct category.
[A] lower bin

[Q] Exam item: assign KKASKVTVDADIDDILK [ISW2] to the correct category.
[A] upper bin

[Q] Exam item: assign QQQTNALNGIDINTVNT [GRR1] to the correct category.
[A] upper bin

[Q] Exam item: assign PYLLETYANVLIPCKYL [RPN7] to the correct category.
[A] lower bin

[Q] Exam item: assign NGAFQNSSNLSYNNTGI [RRP4] to the correct category.
[A] middle bin

[Q] Exam item: assign RPEQLSNIIHDESDTIS [SNF6] to the correct category.
[A] middle bin

[Q] Exam item: assign QNNEQNPIDPFNIIREF [YDL116W/NUP84] to the correct category.
[A] upper bin

[Q] Exam item: assign RDQGNDSLNDDLNKENK [YIL149C/MLP2] to the correct category.
[A] upper bin

[Q] Exam item: assign SKDELREKLAEVYKAEK [RPS24A] to the correct category.
[A] upper bin

[Q] Exam item: assign VTEETTKQIQSVRIDGR [SIR4] to the correct category.
[A] middle bin

[Q] Exam item: assign EIKKMIITNINAIFLSS [YCG1] to the correct category.
[A] lower bin

----------
assaySummary: protein stability index of a GFP-peptide fusion (yeast GPS) (PSI 1-4); higher = more stable; sorted into four equal gates, so the index is relative within each strain
conditionDescription: pdr5∆
Parameter: protein stability index. Scope: all listed entries.
Please reply with the value in numeric form only.

Reference set, count: 5
[Q] # get_value(readout='protein stability index', item= QFASPVRWIETQDVFLK [FAS2] )
[A] 2.06

[Q] # get_value(readout='protein stability index', item= RDVRDQAAGGLSIRLTN [RPN8] )
[A] 2.85

[Q] # get_value(readout='protein stability index', item= NILLRERDSYKLLASTE [YIL149C/MLP2] )
[A] 2.53

[Q] # get_value(readout='protein stability index', item= KWQTLIEANVTVKTSDD [RPS1A] )
[A] 1.62

[Q] # get_value(readout='protein stability index', item= VPTKIARGTIEIVSDVK [RPP0] )
[A] 2.38

Lab note: next sequence to report on.
[Q] # get_value(readout='protein stability index', item= ATFLLTDIKDTLTKISM [MCD1] )
[A] 3.14
